Listed below: kon values for each entry.
# STUDY_SYSTEM: T1, human FGFR2b (Kaixia Biotechnology, catalog number FGR-HM1BB) (human, UniProt P21802-3 22-378)
# T1 construct: extracellular domain; bought; also called hFGFR2b; human FGFR2b protein
# T1 sequence (P21802 other isoform, or with tags, fused parts or gaps): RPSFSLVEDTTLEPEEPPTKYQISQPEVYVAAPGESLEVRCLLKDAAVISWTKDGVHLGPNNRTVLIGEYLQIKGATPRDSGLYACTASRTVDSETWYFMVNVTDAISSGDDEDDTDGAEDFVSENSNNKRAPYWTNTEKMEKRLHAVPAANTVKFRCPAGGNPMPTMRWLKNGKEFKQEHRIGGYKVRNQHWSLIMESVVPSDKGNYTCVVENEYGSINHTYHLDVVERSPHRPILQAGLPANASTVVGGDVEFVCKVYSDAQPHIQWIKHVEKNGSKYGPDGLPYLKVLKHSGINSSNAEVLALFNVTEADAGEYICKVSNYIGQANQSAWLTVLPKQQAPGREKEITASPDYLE
# TEST_METHOD_NOTES: BLI, antibody on AHC2 sensor
Response body: numeric value in M⁻¹ s⁻¹, unit text excluded.

3C7-VH0-VL2 (antibody, human IgG1, kappa, V domains shown, humanized IgG1) VH: QVQLVQSGAEVKKPGASVKVSCKASGYTFTNYYIHWVRQAPGQGLEWMGAIYPDNGDTSYNQRFKVRATLTADTSTSTVYMELSSLRSEDTAVYYCARAFTYWGQGTTVTVSS VL: DIQMTQSPSSLSASVGDRVTITCGASENIYGALNWYQRKPGKAPKLLIYGATNLADGVPSRFSGSGSGTDYTLTISSLQPEDFATYYCQNVLSTPYTFGGGTKLEIKR ... 269000

Task: Fill in kon for record 3C7-VH3-VL1 (antibody, human IgG1, kappa, V domains shown, humanized IgG1) VH: QVQLVQSGAEVKKPGASVKVSCKASGYIFRNYYIHWVKQAPGQGLEWMGAIYPDNGDTSYNQRFKVRATLTADTSTSTVYMELSSLRSEDTAVYYCARAFTYWGQGTTVTVSS VL: DIQMTQSPSSLSASVGDRVTITCGASENIYGALNWYQQKPGKAPKLLIYGATNLADGVPSRFSGSGSGTDYTLTISSLQPEDVATYYCQNVLSTPYTFGGGTKVEIKR
Output: 429000

Task: Fill in kon for record 3H9-VH2-VL1 (antibody, human IgG1, kappa, V domains shown, humanized IgG1) VH: QVQLVQSGAEVKKPGASVKVSCKASGYTFSFYNMHWVRQAPGQGLEWIGLIYPDNGDTSYNQKFKGRATLTADTSTSTVYMELSSLRSEDTAVYYCARGGLDYWGQGTTVTVSS VL: DIQMTQSPSSLSASVGDRVTITCRASENIYSNLAWYQQKPGKSPKLLIYAATNLADGVPSRFSGSGSGTDYTLTISSLQPEDFATYYCQHFWGTPYTFGGGTKVEIKR
Output: 570000
